Answer each item with its documented % Inhibition Mean.
# Tested on: MCF-7 cells
# assay_protocol: Cytoxicity on MCF-7 cells (drug inhibition, cell count)
# Type: cell-based
# condition_set: MCF-7 cells, 5 μg/ml, mean, Exp. Nov. 14 to Nov. 18, 2005
State just the number; it will be interpreted in %.

Recorded % Inhibition Mean of Cc1cn([C@H]2C[C@H](N=[N+]=[N-])[C@@H](CO)O2)c(=O)[nH]c1=O [AZT, reference compound] , please.
38.62

Recorded % Inhibition Mean of COc1ccc(C=CC(=O)c2cc(Br)cc(Br)c2O)cc1OC , please.
54.61

Recorded % Inhibition Mean of COc1ccc(C=CC(=O)c2cc(Cl)cc(Cl)c2O)cc1OC [CHCl 2M] , please.
44.09

Recorded % Inhibition Mean of COc1ccc(C=CC(=O)c2cc(C)cc([N+](=O)[O-])c2O)cc1OC , please.
20.17

###

Answer each item with its documented % Inhibition Mean.
# Tested on: PC-3 cells
# assay_protocol: Cytoxicity on PC-3 cells (drug inhibition, cell count)
# Assay type: cell-based
# condition_set: 10 μg/ml, mean, Exp. Nov. 11 to Nov. 17, 2005
State just the number; it will be interpreted in %.

Recorded % Inhibition Mean of Cc1cn([C@H]2C[C@H](N=[N+]=[N-])[C@@H](CO)O2)c(=O)[nH]c1=O [AZT, reference compound] , please.
37.16

Recorded % Inhibition Mean of COc1ccc(C=CC(=O)c2cc(Br)cc(Br)c2O)cc1OC , please.
26.28

Recorded % Inhibition Mean of COc1ccc(C=CC(=O)c2cc(C)cc([N+](=O)[O-])c2O)cc1OC , please.
35.80

Recorded % Inhibition Mean of COc1ccc(C=CC(=O)c2cc(Cl)cc(Cl)c2O)cc1OC [CHCl 2M] , please.
29.00

###

# Test system: PC-3 cells
# assay_protocol: Cytoxicity on PC-3 cells (drug inhibition, cell count)
# Type: cell-based
# condition_set: 5 μg/ml, mean, Exp. Nov. 11 to Nov. 17, 2005
Answer each item with its documented Cells (×10^4) Mean.

Recorded Cells (×10^4) Mean of Cc1cn([C@H]2C[C@H](N=[N+]=[N-])[C@@H](CO)O2)c(=O)[nH]c1=O [AZT, reference compound] , please.
17.33 ×10^4

Recorded Cells (×10^4) Mean of COc1ccc(C=CC(=O)c2cc(C)cc([N+](=O)[O-])c2O)cc1OC [CHNM 2M] , please.
62.67 ×10^4

Recorded Cells (×10^4) Mean of COc1ccc(C=CC(=O)c2cc(Br)cc(Br)c2O)cc1OC [CHBr 2M] , please.
70.83 ×10^4

Recorded Cells (×10^4) Mean of COc1ccc(C=CC(=O)c2cc(Cl)cc(Cl)c2O)cc1OC [CHCl 2M] , please.
70.00 ×10^4

###

# Tested on: H-9 cells
# assay_protocol: Cytoxicity on H-9 cells (drug inhibition, cell count)
# Format: cell-based
# condition_set: 5 μg/ml, mean, Exp. Dec. 05 to Dec. 09, 2005
Answer each item with its documented Cells (×10^4) Mean.

Recorded Cells (×10^4) Mean of Cc1cn([C@H]2C[C@H](N=[N+]=[N-])[C@@H](CO)O2)c(=O)[nH]c1=O [AZT, reference compound] , please.
30.92 ×10^4

Recorded Cells (×10^4) Mean of COc1ccc(C=CC(=O)c2cc(Br)cc(Br)c2O)cc1OC [CHBr 2M] , please.
25.33 ×10^4

Recorded Cells (×10^4) Mean of COc1ccc(C=CC(=O)c2cc(Cl)cc(Cl)c2O)cc1OC [CHCl 2M] , please.
24.00 ×10^4

Recorded Cells (×10^4) Mean of COc1ccc(C=CC(=O)c2cc(C)cc([N+](=O)[O-])c2O)cc1OC [CHNM 2M] , please.
58.58 ×10^4

###

# System: PC-3 cells
# assay_protocol: Cytoxicity on PC-3 cells (drug inhibition, cell count)
# Type: cell-based
# condition_set: 1 μg/ml, mean, Exp. Nov. 11 to Nov. 17, 2005
readout_kind: Cells (×10^4) Mean

Recorded Cells (×10^4) Mean of Cc1cn([C@H]2C[C@H](N=[N+]=[N-])[C@@H](CO)O2)c(=O)[nH]c1=O [AZT, reference compound] , please.
84.58 ×10^4

Recorded Cells (×10^4) Mean of COc1ccc(C=CC(=O)c2cc(C)cc([N+](=O)[O-])c2O)cc1OC , please.
89.08 ×10^4

Recorded Cells (×10^4) Mean of COc1ccc(C=CC(=O)c2cc(Br)cc(Br)c2O)cc1OC , please.
70.92 ×10^4

Recorded Cells (×10^4) Mean of COc1ccc(C=CC(=O)c2cc(Cl)cc(Cl)c2O)cc1OC [CHCl 2M] , please.
73.42 ×10^4
